# method_summary: Mouse blood and tissue PK (LC/MS-MS)
# Assay type: in vivo
# experimental_parameters: BALB/c nude, mouse, ear skin, oral, 10 mg/kg, sheet Ear Skin, model Capan-2, study Capan-2 #3_PHA 2023, 10 mg/kg, 4h; read-out: RMC-6236 (nM) Tumor
reported_metric: concentration at 4 h (nM)
Dear colleague, please return just the value in nM, with no unit written.

I'd like to know its concentration at 4 h. The compound in question is `CCn1c(-c2cc(N3CCN(C)CC3)cnc2[C@H](C)OC)c2c3cc(ccc31)-c1csc(n1)C[C@H](NC(=O)[C@H]1C[C@@H]1C)C(=O)N1CCC[C@H](N1)C(=O)OCC(C)(C)C2`
883
